Source of measurements: the RNAGym collection of RNA variant scans (doi:10.7554/elife.80360)

B1: HDV Ribozyme (parent)
chain: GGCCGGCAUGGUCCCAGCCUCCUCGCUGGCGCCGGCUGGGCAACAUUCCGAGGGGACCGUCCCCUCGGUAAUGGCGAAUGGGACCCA

variants of: B1; test: self-cleavage, relative activity (ratio to wild type); higher = more cleavage; co-transcriptional
Label scheme for self-cleavage: lower than 0.6 is F, 0.6 and above is T.

Answered examples (6):
U12G C33G | F
G6U U23G | F
G38C A70G | F
C14A U69C | T
C22U C63G | T
G39U A87C | T

From here, focus on the item given below.
Given C14G C32U , state whether its self-cleavage is at least 0.6.
F
